Assay type: in vivo, human (healthy adult subjects)
Conditions: human, blood, 2 mg, t 1/2, sirolimus 2 mg single dose alone, Period 1 Day 1, N = 11, blood; harmonic mean (pseudo-standard deviation)
Measured Endpoint: half-life (h)
Kindly provide the numeric value in h only, without the unit symbol.

Prompt line: Requested read-out: half-life. Entry: CO[C@H]1C[C@@H]2CC[C@@H](C)[C@@](O)(O2)C(=O)C(=O)N2CCCC[C@H]2C(=O)O[C@H]([C@H](C)C[C@@H]2CC[C@@H](O)[C@H](OC)C2)CC(=O)[C@H](C)/C=C(\C)[C@@H](O)[C@@H](OC)C(=O)[C@H](C)C[C@H](C)/C=C/C=C/C=C/1C
Response line: 96
